# System Tested: Phosphatidylinositol 4,5-bisphosphate 3-kinase catalytic subunit gamma isoform (Homo sapiens)
# Test: Inhibition of PI3Kgamma in human SUDHL-6 cells assessed as inhibition of cell viability at 100 nM after 72 hrs by CellTiter-Glo luminescent assay
# Assay type: cell-based
# Measurement Conditions: SU-DHL-6
Activity calls are given as the source filed them. The calls are words filed in the database; no cut-off is given here.
Labels: t = active, f = inactive

{"columns": ["Chem Smiles", "Qualitative Label"],
 "data": [
  ["COC(=O)[C@@]12OC[C@]34[C@H]([C@@H](O)[C@@H]1O)[C@@]1(C)CC(=O)C(OCC(=O)NCCN)=C(C)[C@@H]1C[C@H]3OC(=O)[C@H](OC(=O)C=C(C)C)[C@@H]24", "t"],
  ["COC(=O)[C@@]12OC[C@]34[C@H]([C@@H](O)[C@@H]1O)[C@@]1(C)CC(=O)C(O)=C(C)[C@@H]1C[C@H]3OC(=O)[C@H](OC(=O)C=C(C)C)[C@@H]24", "t"],
  ["COC(=O)[C@@]12OC[C@]34[C@H]([C@@H](O)[C@@H]1O)[C@@]1(C)CC(=O)C(OC(=O)[C@H](C)NC(=O)[C@H](C)N)=C(C)[C@@H]1C[C@H]3OC(=O)[C@H](OC(=O)C=C(C)C)[C@@H]24", "f"]
]}
